# Assayed target: hSOS1 enzyme / KRAS (G12C), GST-Tag, GDP-bound protein (Homo sapiens, UniProt Q07889)
# Sequence (Q07889 564-1049 limits assumed, stated change not applied): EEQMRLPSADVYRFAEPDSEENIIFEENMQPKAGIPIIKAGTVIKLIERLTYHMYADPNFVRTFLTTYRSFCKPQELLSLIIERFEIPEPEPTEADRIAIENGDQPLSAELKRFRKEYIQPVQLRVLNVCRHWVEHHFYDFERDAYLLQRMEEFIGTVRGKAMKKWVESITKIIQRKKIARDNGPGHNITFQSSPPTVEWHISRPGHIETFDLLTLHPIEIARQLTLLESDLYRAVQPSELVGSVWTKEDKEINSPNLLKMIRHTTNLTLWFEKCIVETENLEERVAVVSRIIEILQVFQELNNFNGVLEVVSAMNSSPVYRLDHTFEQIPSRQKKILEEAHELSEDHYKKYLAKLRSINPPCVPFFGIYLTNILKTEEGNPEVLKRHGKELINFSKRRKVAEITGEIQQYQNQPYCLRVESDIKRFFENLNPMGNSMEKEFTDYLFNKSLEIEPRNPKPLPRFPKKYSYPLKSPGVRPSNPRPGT
# Measurement description: SOS1-mediated KRAS guanine nucleotide exchange (GEF) assay, HTRF ("On Assay")
# Format: biochemical
# Test context: 1 μM compound
Listed molecules paired with reported inhibition at 1 µM

Examples with their reported inhibition at 1 µM follow.
| Molecule | inhibition at 1 µM |
| --- | --- |
| CCN1CCN(c2ccc3nc(Cl)nc(N[C@H](C)c4cc(N)cc(C(F)(F)F)c4)c3c2)CC1 [Example 73] | ≥ 50% |
| CC(C)N1CCN(c2cc3c(N[C@H](C)c4cc(N)cc(C(F)(F)F)c4)nc(N(C)C)nc3cn2)CC1 [Example 50] | ≥ 50% |
| CNCCC(=O)Nc1nc(N[C@H](C)c2cc(N)cc(C(F)(F)F)c2)c2cc(N3CCCC3)ncc2n1 [Example 78] | ≥ 50% |
| C[C@@H](Nc1nc(N2CCOCC2)nc2cnc(N3CCCC3)cc12)c1cc(N)cc(C(F)(F)F)c1 [Example 5] | < 50% |
| COCC(=O)Nc1nc(N[C@H](C)c2cc(N)cc(C(F)(F)F)c2)c2cc(N3CCCC3)ncc2n1 [Example 76] | < 50% |
| C[C@@H](Nc1nc(N(C)C)nc2cnc(N3CCCC3)cc12)c1cc(N)cc(C(F)(F)F)c1 [Example 2] | ≥ 50% |

Problem: Lab request: please report inhibition at 1 µM under test system hSOS1 enzyme / KRAS (G12C), GST-Tag, GDP-bound protein (Homo sapiens, UniProt Q07889) for C[C@@H](Nc1nc(N(C)CCN(C)C)nc2cnc(N3CCCC3)cc12)c1cc(N)cc(C(F)(F)F)c1 [Example 10]
Solution: ≥ 50%

====

# Assayed target: hSOS1 enzyme / KRAS (G12C), GST-Tag, GDP-bound protein (Homo sapiens, UniProt Q07889)
# Measurement description: SOS1-mediated KRAS guanine nucleotide exchange (GEF) assay, HTRF ("On Assay")
# Type: biochemical
# Test context: 1 μM compound
Property measured: inhibition at 1 µM

Worked examples follow.
| Cpd smiles | inhibition at 1 µM |
| --- | --- |
| CNc1nc(N[C@H](C)c2cc(N)cc(C(F)(F)F)c2)c2cc(N3CCC(F)CC3)ncc2n1 | ≥ 50% |
| CC1CCN(c2cc3c(N[C@H](C)c4cc(N)cc(C(F)(F)F)c4)nc(N4CCC4)nc3cn2)CC1 | < 50% |
| C[C@@H](Nc1nc(N(C)C)nc2cnc(N3CCOCC3)cc12)c1cc(N)cc(C(F)(F)F)c1 | ≥ 50% |
| C[C@@H](Nc1nc(N2CCN(C)CC2)nc2cnc(N3CCCC3)cc12)c1cc(N)cc(C(F)(F)F)c1 | < 50% |
| COC1CCN(c2cc3c(N[C@H](C)c4cc(N)cc(C(F)(F)F)c4)nc(N(C)C)nc3cn2)CC1 | ≥ 50% |
| CNc1nc(N[C@H](C)c2cc(N)cc(C(F)(F)F)c2)c2cc(N3CCCC3)ncc2n1 | ≥ 50% |

Next item in the queue.
Problem: Value wanted: inhibition at 1 µM (hSOS1 enzyme / KRAS (G12C), GST-Tag, GDP-bound protein (Homo sapiens, UniProt Q07889)) of entry "C[C@@H](Nc1nc(Cl)nc2cnc(N3CCC(F)CC3)cc12)c1cc(N)cc(C(F)(F)F)c1"
Solution: ≥ 50%
